test: In vivo pharmacokinetics, plasma and brain, 10 mg/kg IP; details: male, CD1, mouse, plasma, mice
Quantity Kind: AUC(0-inf)

molecule="COc1cc(-c2nc(-c3cccs3)c(-c3ccccc3)[nH]2)cc(OC)c1O [DPTIP]" data_value="10 µM·h"

###

test: In vivo pharmacokinetics, plasma and brain, 10 mg/kg IP; conditions: male, CD1, mouse, plasma, mice
Quantity Kind: Tmax (min)

molecular_string=COc1cc(-c2nc(-c3cccs3)c(-c3ccccc3)[nH]2)cc(OC)c1O data_value=30

###

assay: In vivo pharmacokinetics, plasma and brain, 10 mg/kg IP; conditions: male, CD1, mouse, brain, mice
Quantity Kind: AUC(0-inf)

molecular_string=COc1cc(-c2nc(-c3cccs3)c(-c3ccccc3)[nH]2)cc(OC)c1O data_value="2.6 µM·h"
